Molecular target: T1, hPRLR.mFc (soluble dimeric human PRLR) (human)
T1 construct: dimeric PRLR construct
T1 chain: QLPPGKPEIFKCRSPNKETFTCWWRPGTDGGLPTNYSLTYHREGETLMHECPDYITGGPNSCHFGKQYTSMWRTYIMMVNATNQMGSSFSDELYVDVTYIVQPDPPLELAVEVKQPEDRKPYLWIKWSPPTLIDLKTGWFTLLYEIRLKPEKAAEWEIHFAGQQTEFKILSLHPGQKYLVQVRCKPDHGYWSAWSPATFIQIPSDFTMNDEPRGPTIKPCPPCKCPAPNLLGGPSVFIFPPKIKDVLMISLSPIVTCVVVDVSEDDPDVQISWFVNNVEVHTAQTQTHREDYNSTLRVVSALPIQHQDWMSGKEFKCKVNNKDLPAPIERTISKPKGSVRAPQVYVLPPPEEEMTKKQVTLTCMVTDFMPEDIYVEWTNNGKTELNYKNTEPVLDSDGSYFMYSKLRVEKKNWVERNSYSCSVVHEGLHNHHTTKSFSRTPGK
Test: SPR (Biacore), antibody capture, 37 C
pKd: −log10 of the molar value.
assayEndpoint: pKd

[[record]]
binder = "H1H6958N2 (antibody, human IgG1, V domains shown, also called H2M6958N2) VH: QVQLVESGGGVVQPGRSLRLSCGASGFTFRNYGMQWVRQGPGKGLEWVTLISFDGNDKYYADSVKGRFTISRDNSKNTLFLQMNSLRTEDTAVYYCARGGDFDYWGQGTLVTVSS VL: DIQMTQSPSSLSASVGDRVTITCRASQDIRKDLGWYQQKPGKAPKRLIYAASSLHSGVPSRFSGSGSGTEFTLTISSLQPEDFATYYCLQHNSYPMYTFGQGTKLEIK"
assayendpoint = "pKd"
value = 9.78

[[record]]
binder = "H1H6762P (antibody, human IgG1, V domains shown, human IgG1 Fc (H1H)) VH: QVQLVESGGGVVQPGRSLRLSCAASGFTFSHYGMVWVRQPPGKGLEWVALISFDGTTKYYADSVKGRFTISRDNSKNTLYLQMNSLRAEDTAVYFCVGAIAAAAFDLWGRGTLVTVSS VL: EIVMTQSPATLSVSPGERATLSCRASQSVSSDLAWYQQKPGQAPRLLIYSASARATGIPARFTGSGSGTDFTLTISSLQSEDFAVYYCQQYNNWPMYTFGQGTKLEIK"
assayendpoint = "pKd"
value = 9.89

[[record]]
binder = "H1H6792P (antibody, human IgG1, V domains shown, human IgG1 Fc (H1H)) VH: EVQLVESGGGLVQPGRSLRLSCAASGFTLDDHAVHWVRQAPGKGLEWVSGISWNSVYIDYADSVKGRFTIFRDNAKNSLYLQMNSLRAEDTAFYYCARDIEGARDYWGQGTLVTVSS VL: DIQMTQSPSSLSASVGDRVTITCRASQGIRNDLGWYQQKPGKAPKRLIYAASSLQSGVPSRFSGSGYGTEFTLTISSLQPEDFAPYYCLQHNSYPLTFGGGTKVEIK"
assayendpoint = "pKd"
value = 9.45

